Data origin: PubChem BioAssay (NCI)

# System: TK-10 renal
# method: NCI-60 one-dose screen, 48 h (100 = growth as untreated, 0 = no growth, -100 = all killed)
# condition info: 10 µM unless noted
Compounds without any hit were thinned out: in the full panel of roughly 83,000, 20% have a hit.
assay readout: growth (%)
Please respond with the number in % and leave the unit unwritten.

O=C(O)CCCN1C(=O)C2C3CCC(C3)C2C1=O (stereo not drawn)	98.2

QUERY: Quickly give me recorded growth for O=S1(=O)N(Cc2ccccc2)[C@@H](Cc2ccccc2)[C@H](O)[C@H](O)[C@H](Cc2ccccc2)N1Cc1ccccc1
RESULT: 60.4

QUERY: Consider the compound O=c1oc2ccc(Br)cc2c(=O)n1-c1ccc(I)cc1F . State its measured growth.
RESULT: 7.64

QUERY: Tell us which growth value is on record for Cc1cc(Nc2ccc(OCc3ccccc3)cc2)nc2cc(O)ccc12
RESULT: 73.4

QUERY: Kindly indicate its recorded growth. Item: O=C(NC1CCN(Cc2ccccc2)CC1)c1cc(C(=O)NC2CCN(Cc3ccccc3)CC2)cc(C(=O)NC2CCN(Cc3ccccc3)CC2)c1
RESULT: 80.8

QUERY: // fetch growth given entry CCn1c(SCC(=O)Nc2cc(C(F)(F)F)ccc2Cl)nc2ccccc2c1=O
RESULT: 33.7

QUERY: Give reported growth value for COC(=O)C1(C)CCC[C@]2(C)[C@H]3C[C@H]4C(C(C)C)=C[C@]3(CC[C@@H]12)[C@H]1[C@@H]4[C@@H](OCC#CCN2CCOCC2)CC[C@@H]1OCC#CCN1CCOCC1 (stereo partly drawn)
RESULT: 98

QUERY: Supply measured growth of COc1cc(NC(=O)CCSc2nc3ccccc3c(=O)n2Cc2ccccc2)cc(OC)c1OC in your reply.
RESULT: 108
